Reference for the values: PubChem BioAssay (NCI)

# System: SK-OV-3 ovarian
# run description: NCI-60 one-dose screen, 48 h (100 = growth as untreated, 0 = no growth, -100 = all killed)
# condition label: 10 µM
About 83,000 compounds went through this panel and 20% of them were active in at least one assay; those are over-represented in the sample as a whole.
observation type: growth (%)

compound	assay target	units label	observed value
O=C(CCCC(=O)N/N=C/c1cc(Cl)ccc1O)N/N=C\c1cc(Cl)ccc1O	SK-OV-3 ovarian	%	13.9
COC(=O)[C@]12CC[C@@H](C)[C@H](C)[C@@H]1C1=CC[C@@H]3[C@@]4(C)C[C@@H](O)[C@H](O)[C@@](C)(CO)[C@@H]4[C@H](O)C[C@@]3(C)[C@]1(C)CC2	SK-OV-3 ovarian	%	-33.1
CCOC(=O)Nc1ccc2c(c1)C(=O)N(CCOC)c1ccccc1O2	SK-OV-3 ovarian	%	37.3
O=[N+]([O-])c1ccc(S(=O)(=O)OCCCCOS(=O)(=O)c2ccc([N+](=O)[O-])cc2)cc1	SK-OV-3 ovarian	%	115
O=[N+]([O-])c1ccc(Br)o1	SK-OV-3 ovarian	%	104
O=[N+]([O-])c1ccc(-c2nc(Cl)c3c(n2)CCCC3)o1	SK-OV-3 ovarian	%	108
COc1ccc(-c2nc(-c3nc4ccc(OC)cc4[nH]3)c3ccccn23)cc1	SK-OV-3 ovarian	%	92.3
Nc1c(C(=O)NC2CCCCC2)sc2nc3c(cc12)C(=O)CCC3	SK-OV-3 ovarian	%	120
Cc1cc(C)c(/C=C2\C(=O)Nc3ccc(NC(=O)CCCCCCC(=O)NO)cc32)[nH]1	SK-OV-3 ovarian	%	31.3
COC1OC2COC(c3ccccc3)OC2C(=O)C1NC(=O)c1ccccc1 (stereo unspecified)	SK-OV-3 ovarian	%	105
N#CC1C=Cc2c(ccc3ccccc23)N1C(=O)c1ccccc1 (stereo unspecified)	SK-OV-3 ovarian	%	4.99
COC(=O)c1cnc2c(c1)Oc1ccc(Cl)cc1-c1cc(C)nn1-2	SK-OV-3 ovarian	%	76.6
Cc1ccc(S(=O)(=O)Oc2ccccc2-c2ccccc2)cc1	SK-OV-3 ovarian	%	23
COCc1cc2c(cc1Br)OCO2	SK-OV-3 ovarian	%	95.3
Fc1ccc(-c2cc(C(Cl)Cl)no2)cc1	SK-OV-3 ovarian	%	112
Nc1cc(O)cc(O)c1	SK-OV-3 ovarian	%	99.3
C[C@]12CC[C@H]3[C@@H](CC=C4C[C@@H](O)CC[C@@]43C)[C@@H]1CC[C@@H]2C(=O)C/C=N/O	SK-OV-3 ovarian	%	97.1
CCOC(=O)c1cc(-c2ccccc2)nc(N)n1	SK-OV-3 ovarian	%	103
COC(=O)[C@]12CC[C@@H](C)[C@H](C)[C@@H]1C1=CC[C@@H]3[C@@]4(C)C/C(=N\O)[C@H](O)[C@@]5(C)COC(=C45)C[C@@]3(C)[C@]1(C)CC2	SK-OV-3 ovarian	%	-91.9
Nc1c(C(=O)Nc2ccccc2F)sc2nc3c(cc12)C(=O)CCC3	SK-OV-3 ovarian	%	13.6
COc1ccc(-c2csc(-c3cc(Cl)cc(Cl)c3Cl)n2)cc1	SK-OV-3 ovarian	%	90.5
